# Assayed target: YcgRLIC_11920
# Construct: full-length protein, N-terminal 6x histidine tag
# Assay info: ITC ([…] °C; […] at […] °C), […] c-di-GMP:protein stoichiometry
Readout kind: Kd (nM)
Answer format: numeric, nM implied, no suffix.

Summary line: Nc1nc2c(ncn2[C@@H]2O[C@@H]3COP(=O)(O)O[C@H]4[C@@H](O)[C@H](n5cnc6c(=O)[nH]c(N)nc65)O[C@@H]4COP(=O)(O)O[C@H]3[C@H]2O)c(=O)[nH]1 , YcgRLIC_11920, reported Kd = 60
